Values compiled from ChEMBL document CHEMBL1138297.

Test system: Yersinia pseudotuberculosis
assay_details: Effect on T3S in Yersinia pseudotuberculosis 3 pIB29 assessed as inhibition of light emission at 20 uM by luciferase reporter gene assay
Catalogue of inhibition readings, one per entry.

# mol_smiles, inhibition
records = [
    ("CC(=O)Oc1ccc(I)cc1C(=O)Nc1ccc(SC(F)(F)F)cc1", "74%"),
    ("CC(C)(C)c1ccc(NC(=O)c2cc(I)cc(I)c2O)cc1", "40%"),
    ("O=C(Nc1ccc(Cl)cc1)c1cc(I)ccc1O", "85%"),
    ("O=C(Nc1ccc(Cl)cc1)c1cc(I)cc(I)c1O", "100%"),
    ("CC(=O)Oc1c(C(=O)Nc2ccc(SC(F)(F)F)cc2)cc2cc(Br)ccc2c1Br", "10%"),
    ("CC(=O)Oc1c(I)cc(I)cc1C(=O)Nc1ccc(F)cc1", "76%"),
    ("CC(=O)Oc1c(Cl)cc(Cl)c(Cl)c1C(=O)Nc1ccc(SC(F)(F)F)cc1", "95%"),
    ("COc1cc(Cl)c(C)cc1NC(=O)c1cc(I)cc(I)c1OC(C)=O", "19%"),
    ("O=C(Nc1ccc(Cl)cc1)c1ccccc1O", "64%"),
    ("CC(=O)Oc1c(Cl)cc(Cl)c(Cl)c1C(=O)Nc1cc(C)cc(C)c1", "6%"),
    ("COc1cc(Cl)c(C)cc1NC(=O)c1cc(I)cc(I)c1O", "55%"),
    ("CC(=O)Oc1c(I)cc(I)cc1C(=O)Nc1ccc(SC(F)(F)F)cc1", "71%"),
    ("CCCCCCCc1ccc(NC(=O)c2cc(I)cc(I)c2O)cc1", "27%"),
    ("CCCCCCCc1ccc(NC(=O)c2cc(I)cc(I)c2OC(C)=O)cc1", "19%"),
    ("CC(=O)Oc1ccccc1C(=O)Nc1ccc(Cl)cc1", "44%"),
    ("O=C(Nc1ccc(SC(F)(F)F)cc1)c1cccc(Cl)c1O", "81%"),
    ("CC(=O)Oc1c(Cl)cccc1C(=O)Nc1ccc(Br)cc1", "36%"),
    ("Cc1ccc(C(=O)Nc2ccccc2F)c(O)c1", "21%"),
    ("O=C(Nc1ccc(SC(F)(F)F)cc1)c1cc(I)ccc1O", "57%"),
    ("CC(=O)Oc1c(I)cc(I)cc1C(=O)Nc1cc(Cl)ccc1F", "58%"),
    ("Cc1cc(C)cc(NC(=O)c2c(O)c(Cl)cc(Cl)c2Cl)c1", "24%"),
    ("O=C(Nc1ccc(SC(F)(F)F)cc1)c1cc2cc(Br)ccc2c(Br)c1O", "55%"),
]
